tested on: CCRIS mutagenicity, Ames/micronucleus/aberration tests; assay: CCRIS mutagenicity studies; settings: Test System: AMES SALMONELLA TYPHIMURIUM; Strain/Indicator: TA100; Metabolic Activation: S-9; Method: STANDARD PLATE
Activity calls are given as the source filed them. The rule behind the calls is not given here.
The categories you may choose from are 1 (yes) for active, 0 (no) for inactive

{"smiles.string": "Cc1cc(-c2ccc(N)c(C)c2)ccc1N", "system.tested": "CCRIS mutagenicity, Ames/micronucleus/aberration tests", "class.name": "1 (yes)"}
{"smiles.string": "N=c1ccn2c(n1)O[C@H]1[C@H](O)[C@@H](CO)O[C@H]12", "system.tested": "CCRIS mutagenicity, Ames/micronucleus/aberration tests", "class.name": "0 (no)"}
{"smiles.string": "Cc1ccc2c(c1)c(=NC(=O)CCCCl)sn2C(=O)CCCCl", "system.tested": "CCRIS mutagenicity, Ames/micronucleus/aberration tests", "class.name": "0 (no)"}
{"smiles.string": "CCN(C(=O)CCCCl)c1snc2ccccc12", "system.tested": "CCRIS mutagenicity, Ames/micronucleus/aberration tests", "class.name": "0 (no)"}
{"smiles.string": "CCCCCCCC/C=C\\CCCCCCCCCCCC(=O)NCCCCCCCCCCCCCCCCCC", "system.tested": "CCRIS mutagenicity, Ames/micronucleus/aberration tests", "class.name": "0 (no)"}

Now consider the entry below.
## Task Check the results log: what was the call for COc1ccc2c3c(cccc13)OC([N+](=O)[O-])=C2 ?
## Result 0 (no)

###

Test system: CCRIS mutagenicity, Ames/micronucleus/aberration tests
Assay: CCRIS mutagenicity studies
Conditions: Test System: AMES SALMONELLA TYPHIMURIUM; Strain/Indicator: TA100; Metabolic Activation: RAT, LIVER, S-9, AROCLOR; Method: PREINCUBATION
Description: The CCRIS database contains chemical records with carcinogenicity, mutagenicity, tumor promotion, and tumor inhibition test results. It was developed by the National Cancer Institute (NCI). Data are derived from studies cited in primary journals, current awareness tools, NCI reports, and other sources. Test results have been reviewed by experts in carcinogenesis and mutagenesis. CCRIS provides historical information from the years 1985 - 2011. It is no longer updated. […]
Activity calls are given as the source filed them. The rule behind the calls is not given here.
attribute.measured: mutagenic call

Use these answered entries as a reference point.
{"molecule": "COC(=O)c1oc(N(OC(C)=O)C(C)=O)c(-c2ccccc2)c1-c1ccccc1", "mutagenic call": "inactive; negative"}
{"molecule": "C[C-](C)[N+](=O)[O-]", "mutagenic call": "active; positive"}
{"molecule": "CC(C)(C)[N+](=O)[O-]", "mutagenic call": "inactive; negative"}
{"molecule": "COC(=O)c1oc(NO)c(-c2ccccc2)c1-c1ccccc1", "mutagenic call": "inactive; negative"}
{"molecule": "O=C(NCO)c1ccc(Cl)cc1", "mutagenic call": "inactive; negative"}
{"molecule": "CC(C)(N=O)[N+](=O)[O-]", "mutagenic call": "inactive; negative"}

## Task Item: CC(CO)[N+](=O)[O-] (stereo not given) Test system: CCRIS mutagenicity, Ames/micronucleus/aberration tests Read-out: mutagenic call Value: ?
## Result inactive; negative

## Task Quick check: mutagenic call on CCRIS mutagenicity, Ames/micronucleus/aberration tests, item O=[N+]([O-])[C-]1CCCC1 ?
## Result active; positive

## Task For the record N[C@@H](CCC(=O)N[C@@H](CSN=O)C(=O)NCC(=O)O)C(=O)O , what value of mutagenic call is listed for CCRIS mutagenicity, Ames/micronucleus/aberration tests?
## Result active; positive

## Task What measured mutagenic call is associated with CCCCN(CCCC(=O)O)N=O on CCRIS mutagenicity, Ames/micronucleus/aberration tests?
## Result inactive; negative

###

test system: CCRIS mutagenicity, Ames/micronucleus/aberration tests; test: CCRIS mutagenicity studies; conditions: End Point: IN VITRO CHROMOSOMAL ABERRATIONS; Test System: CHO CELLS; Metabolic Activation: RAT, LIVER, S-9, AROCLOR 1254
Calls of active or inactive are those of the source. How the calls were made is not given here.
attribute.measured: mutagenic call

Would you please look over these solved cases?
{"smiles.string": "Cc1c(N)cccc1N", "attribute.measured": "mutagenic call", "result": "inactive; negative"}
{"smiles.string": "O=S(=O)(O)c1cc(S(=O)(=O)O)c2c(N=Nc3ccccc3)c(O)ccc2c1", "attribute.measured": "mutagenic call", "result": "active; positive"}
{"smiles.string": "O=CCC=O", "attribute.measured": "mutagenic call", "result": "inactive; negative"}
{"smiles.string": "O=C1CN(/N=C/c2ccc([N+](=O)[O-])o2)C(=O)N1", "attribute.measured": "mutagenic call", "result": "active; positive"}

## Task Please report the recorded mutagenic call for ClC(Cl)Br .
## Result inactive; negative

###

Test system: CCRIS mutagenicity, Ames/micronucleus/aberration tests
Assay: CCRIS mutagenicity studies
Conditions: End Point: IN VITRO CHROMOSOMAL ABERRATIONS; Test System: CHO-LB CELLS; Metabolic Activation: RAT, LIVER, S-9, AROCLOR 1254
Text: The CCRIS database contains chemical records with carcinogenicity, mutagenicity, tumor promotion, and tumor inhibition test results. It was developed by the National Cancer Institute (NCI). Data are derived from studies cited in primary journals, current awareness tools, NCI reports, and other sources. Test results have been reviewed by experts in carcinogenesis and mutagenesis. CCRIS provides historical information from the years 1985 - 2011. It is no longer updated. […]
The source made the active and inactive calls. The rule behind the calls is not given here.
Just give me one of these, please: active, inactive

Check out these entries, answers already filled in.
{"smiles.string": "Nc1ccc(Cl)c(N)c1", "class.name": "inactive"}
{"smiles.string": "Clc1ccc(Cl)c(Cl)c1Cl", "class.name": "inactive"}
{"smiles.string": "S=[Se]", "class.name": "active"}
{"smiles.string": "COC(=O)c1ccc(C(=O)OC)cc1", "class.name": "inactive"}

Now, please, on to the next compound.
## Task Per the assay record, what outcome was assigned to Cc1ccc(N)cc1N ?
## Result active

###

tested on: CCRIS mutagenicity, Ames/micronucleus/aberration tests; assay: CCRIS mutagenicity studies; settings: Test System: AMES SALMONELLA TYPHIMURIUM; Strain/Indicator: TA1538; Metabolic Activation: HAMSTER, LIVER, S-9, AROCLOR 1254; Method: STANDARD PLATE
Active and inactive are the calls of the source. No rule for the calls is given here.
In this exercise, the only acceptable responses are active, inactive

{"smiles.string": "Nc1ccc(Cl)c(N)c1", "class.name": "active"}
{"smiles.string": "CCOC(=O)CBr", "class.name": "inactive"}
{"smiles.string": "CCOC(=O)CC(=O)CCl", "class.name": "inactive"}

## Task Hello, I am checking results. What call was entered for C=C(C)OC(C)=O ?
## Result inactive

## Task Could you kindly confirm the outcome this assay logged for Nc1ncn([C@@H]2O[C@H](CO)[C@@H](O)[C@@H]2O)c(=O)n1 ?
## Result inactive

###

system: CCRIS mutagenicity, Ames/micronucleus/aberration tests; experiment: CCRIS mutagenicity studies; conditions: Test System: AMES SALMONELLA TYPHIMURIUM; Strain/Indicator: TA1537; Metabolic Activation: HAMSTER, LIVER, S-9, AROCLOR 1254 (10%); Method: PREINCUBATION
Calls of active or inactive are those of the source. How the calls were made is not given here.
Answer with one of the outcomes yes (active), no (inactive)

{"smiles.string": "CC(=O)NS(=O)(=O)c1ccc(N)cc1", "system.tested": "CCRIS mutagenicity, Ames/micronucleus/aberration tests", "class.name": "no"}
{"smiles.string": "Cc1ccc(C)c(N)c1", "system.tested": "CCRIS mutagenicity, Ames/micronucleus/aberration tests", "class.name": "yes"}

## Task Status in this test for CCCCCN ?
## Result no

## Task What outcome does the record of this test show for C=CC(=O)OCC(CO)(COC(=O)C=C)COC(=O)C=C ?
## Result no

## Task # lookup: test call for C=CC(=O)OCCCCCCOC(=O)C=C
## Result no

## Task // param item: CC(C)(c1cc(Br)c(O)c(Br)c1)c1cc(Br)c(O)c(Br)c1 ; yields the recorded call
## Result no

## Task Hi team, can someone confirm the assay call for Cc1ccccc1OP(=O)(Oc1ccccc1)Oc1ccccc1 ?
## Result no

###

test system: CCRIS mutagenicity, Ames/micronucleus/aberration tests; assay: CCRIS mutagenicity studies; conditions: Test System: AMES SALMONELLA TYPHIMURIUM; Strain/Indicator: YG1024; Metabolic Activation: NONE; Method: STANDARD PLATE
Activity calls are given as the source filed them. No rule for the calls is given here.
Valid outcomes are listed here; reply with one: active, inactive

Example results:
{"smiles.string": "O=[N+]([O-])c1ccc2c(O)cc3cccc4ccc1c2c43", "class.name": "active"}
{"smiles.string": "O=[N+]([O-])c1ccc2ccc3ccccc3c2c1", "class.name": "active"}
{"smiles.string": "COc1cccc2c1cc([N+](=O)[O-])c1c(C(=O)O)cc3c(c12)OCO3", "class.name": "active"}
{"smiles.string": "Nc1cccc(N)c1", "class.name": "inactive"}

## Task What was the test verdict on O=[N+]([O-])c1ccc2ccc3cccc([N+](=O)[O-])c3c2c1 ?
## Result active
